Conditions: in isobutanol, 323.15 K
readout-kind: solubility (mole fraction)
In your answer, state the number alone without any accompanying words.

Item `Cl.N=C(N=C(N)N)N1CCOCC1` : provide solubility (mole fraction) 0.00157
